Test system: Alpha-crystallin B chain (Homo sapiens), P02511 [R120G]
Sequence (P02511 whole entry R120G): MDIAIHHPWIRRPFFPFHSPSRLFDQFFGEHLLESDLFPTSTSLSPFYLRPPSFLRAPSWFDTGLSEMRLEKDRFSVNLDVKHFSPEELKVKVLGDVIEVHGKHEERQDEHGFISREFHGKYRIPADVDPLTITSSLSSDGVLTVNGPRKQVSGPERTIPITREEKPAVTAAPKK
Assay Remarks: Inhibition of alpha-crystallin B R120G mutant (unknown origin)-induced intracellular protein aggregation expressed in human HeLa cells at 0.4 uM incubated for 6 to 8 hrs by fluorescence microscopy relative to untreated control
Format: cell-based
The source made the active and inactive calls. The rule behind the calls is not given here.
Outcomes: active, inactive

Record Smiles	Assigned Category
C[C@H](CCCC(C)(C)O)[C@H]1CC[C@@]2(C)C3=C(CC[C@]12C)[C@@]1(C)C[C@@H](F)[C@H](O)C(C)(C)[C@@H]1CC3	active
C[C@H](CCCC(C)(C)O)[C@H]1CC[C@@]2(C)[C@@]34CC[C@H]5C(C)(C)/C(=N/O)CC[C@]5(C)[C@]3(CC[C@]12C)O4	inactive
C[C@H](CCCC(C)(C)O)[C@H]1CC[C@@]2(C)C3=C(CC[C@]12C)[C@@]1(C)C[C@@H](F)[C@@H](O)C(C)(C)[C@@H]1CC3	active
C[C@H](CCCC(C)(C)O)[C@H]1CC[C@@]2(C)C3=C(CC[C@]12C)[C@@]1(C)CC[C@H](O)C(C)(C)[C@@H]1CC3	active
C[C@H](CCCC(C)(C)O)[C@H]1CC[C@@]2(C)C3=CC[C@H]4C(C)(C)[C@@H](O)CC[C@]4(C)C3=CC[C@]12C	active
C[C@H](CCCC(C)(C)O)[C@H]1CC[C@@]2(C)C3=C(CC[C@]12C)[C@@]1(C)CCC(=O)C(C)(C)[C@@H]1CC3	active

====

System: Alpha-crystallin B chain (Homo sapiens), P02511 [R120G]
Assay Remarks: Inhibition of alpha-crystallin B R120G mutant (unknown origin)-induced cytotoxicity in human HLE-B3 cells assessed as increase in cell viability at 0.04 to 4 uM incubated for 12 hrs by CCK8 assay
Assay type: cell-based
Active and inactive are the calls of the source. The rule behind the calls is not given here.
Labels: active, inactive

Record Smiles	Assigned Category
C[C@H](CCCC(C)(C)O)[C@H]1CC[C@@]2(C)C3=C(CC[C@]12C)[C@@]1(C)C[C@@H](F)[C@H](O)C(C)(C)[C@@H]1CC3	active
C[C@H](CCCC(C)(C)O)[C@H]1CC[C@@]2(C)C3=C(CC[C@]12C)[C@@]1(C)CCC(=O)C(C)(C)[C@@H]1CC3	active
C[C@H](CCCC(C)(C)O)[C@H]1CC[C@H]2[C@@H]3CC=C4C[C@@H](O)CC[C@]4(C)[C@H]3CC[C@]12C	inactive
C[C@H](CCCC(C)(C)O)[C@H]1CC[C@@]2(C)C3=C(CC[C@]12C)[C@@]1(C)CC[C@H](O)C(C)(C)[C@@H]1CC3	active
C[C@H](CCCC(C)(C)O)[C@H]1CC[C@@]2(C)C3=C(CC[C@]12C)[C@@]1(C)C[C@@H](F)[C@@H](O)C(C)(C)[C@@H]1CC3	active
C[C@H](CCCC(C)(C)O)[C@H]1CC[C@@]2(C)C3=CC[C@H]4C(C)(C)[C@@H](O)CC[C@]4(C)C3=CC[C@]12C	active

====

Tested on: Beta-crystallin B2 (Homo sapiens), P43320 [V187E]
Sequence (whole entry): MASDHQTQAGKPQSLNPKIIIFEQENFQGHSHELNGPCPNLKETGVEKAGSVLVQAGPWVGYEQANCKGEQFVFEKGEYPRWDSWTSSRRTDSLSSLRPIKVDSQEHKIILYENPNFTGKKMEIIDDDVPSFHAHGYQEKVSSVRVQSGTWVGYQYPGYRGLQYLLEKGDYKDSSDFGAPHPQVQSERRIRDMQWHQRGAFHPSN
Assay Remarks: Inhibition of beta-crystallin B2 V187E mutant (unknown origin)-induced intracellular protein aggregation expressed in human HeLa cells at 0.4 uM incubated for 6 to 8 hrs by fluorescence microscopy relative to untreated control
Format: cell-based
The source made the active and inactive calls. The rule behind the calls is not given here.
Outcomes: active, inactive

Record Smiles	Assigned Category
C[C@H](CCCC(C)(C)O)[C@H]1CC[C@@]2(C)C3=C(CC[C@]12C)[C@@]1(C)C[C@@H](F)[C@H](O)C(C)(C)[C@@H]1CC3	active
C[C@H](CCCC(C)(C)O)[C@H]1CC[C@@]2(C)C3=C(CC[C@]12C)[C@@]1(C)C[C@@H](F)[C@@H](O)C(C)(C)[C@@H]1CC3	active
C[C@H](CCCC(C)(C)O)[C@H]1CC[C@@]2(C)[C@@]34CC[C@H]5C(C)(C)/C(=N/O)CC[C@]5(C)[C@]3(CC[C@]12C)O4	inactive
C[C@H](CCCC(C)(C)O)[C@H]1CC[C@@]2(C)C3=C(CC[C@]12C)[C@@]1(C)CC[C@H](O)C(C)(C)[C@@H]1CC3	active
C[C@H](CCCC(C)(C)O)[C@H]1CC[C@@]2(C)C3=CC[C@H]4C(C)(C)[C@@H](O)CC[C@]4(C)C3=CC[C@]12C	active
C[C@H](CCCC(C)(C)O)[C@H]1CC[C@@]2(C)C3=C(CC[C@]12C)[C@@]1(C)CCC(=O)C(C)(C)[C@@H]1CC3	active

====

Tested on: Alpha-crystallin B chain (Homo sapiens), P02511 [R120G]
Assay Remarks: Inhibition of alpha-crystallin B R120G mutant (unknown origin)-induced intracellular protein aggregation expressed in human HLE-B3 cells at 4 uM incubated for 6 to 8 hrs by fluorescence microscopy relative to untreated control
Type: cell-based
The source made the active and inactive calls. The rule behind the calls is not given here.
Possible outcomes: active, inactive

Record Smiles	Assigned Category
C[C@H](CCCC(C)(C)O)[C@H]1CC[C@@]2(C)C3=C(CC[C@]12C)[C@@]1(C)C[C@@H](F)[C@H](O)C(C)(C)[C@@H]1CC3	active
C[C@H](CCCC(C)(C)O)[C@H]1CC[C@@]2(C)C3=CC[C@H]4C(C)(C)[C@@H](O)CC[C@]4(C)C3=CC[C@]12C	active
C[C@H](CCCC(C)(C)O)[C@H]1CC[C@@]2(C)C3=C(CC[C@]12C)[C@@]1(C)CCC(=O)C(C)(C)[C@@H]1CC3	active
C[C@H](CCCC(C)(C)O)[C@H]1CC[C@@]2(C)[C@@]34CC[C@H]5C(C)(C)/C(=N/O)CC[C@]5(C)[C@]3(CC[C@]12C)O4	inactive
C[C@H](CCCC(C)(C)O)[C@H]1CC[C@@]2(C)C3=C(CC[C@]12C)[C@@]1(C)C[C@@H](F)[C@@H](O)C(C)(C)[C@@H]1CC3	active
C[C@H](CCCC(C)(C)O)[C@H]1CC[C@@]2(C)C3=C(CC[C@]12C)[C@@]1(C)CC[C@H](O)C(C)(C)[C@@H]1CC3	active

====

System: Gamma-crystallin D (Homo sapiens), P07320 [W43R]
Assay Remarks: Inhibition of gamma-crystallin D W43R mutant (unknown origin)-induced intracellular protein aggregation expressed in human HLE-B3 cells at […] incubated for 6 to 8 hrs by fluorescence microscopy relative to untreated control
Format: cell-based
Active and inactive are the calls of the source. The rule behind the calls is not given here.
Outcome codes: active, inactive

Record Smiles	Assigned Category
C[C@H](CCCC(C)(C)O)[C@H]1CC[C@@]2(C)C3=C(CC[C@]12C)[C@@]1(C)C[C@@H](F)[C@H](O)C(C)(C)[C@@H]1CC3	active
C[C@H](CCCC(C)(C)O)[C@H]1CC[C@@]2(C)C3=C(CC[C@]12C)[C@@]1(C)C[C@@H](F)[C@@H](O)C(C)(C)[C@@H]1CC3	active
C[C@H](CCCC(C)(C)O)[C@H]1CC[C@@]2(C)C3=C(CC[C@]12C)[C@@]1(C)CC[C@H](O)C(C)(C)[C@@H]1CC3	active
C[C@H](CCCC(C)(C)O)[C@H]1CC[C@@]2(C)C3=CC[C@H]4C(C)(C)[C@@H](O)CC[C@]4(C)C3=CC[C@]12C	active
C[C@H](CCCC(C)(C)O)[C@H]1CC[C@@]2(C)C3=C(CC[C@]12C)[C@@]1(C)CCC(=O)C(C)(C)[C@@H]1CC3	active
C[C@H](CCCC(C)(C)O)[C@H]1CC[C@@]2(C)[C@@]34CC[C@H]5C(C)(C)/C(=N/O)CC[C@]5(C)[C@]3(CC[C@]12C)O4	inactive

====

Test system: Gamma-crystallin D (Homo sapiens), P07320 [W43R]
Sequence (whole entry): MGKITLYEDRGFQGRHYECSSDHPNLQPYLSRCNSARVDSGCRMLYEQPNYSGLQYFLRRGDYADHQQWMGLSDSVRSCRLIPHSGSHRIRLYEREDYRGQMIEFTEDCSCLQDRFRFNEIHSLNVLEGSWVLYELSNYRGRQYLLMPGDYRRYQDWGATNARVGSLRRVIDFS
Assay Remarks: Inhibition of gamma-crystallin D W43R mutant (unknown origin)-induced intracellular protein aggregation expressed in human HeLa cells at 0.4 uM incubated for 6 to 8 hrs by fluorescence microscopy relative to untreated control
Assay type: cell-based
Calls of active or inactive are those of the source. The rule behind the calls is not given here.
Possible outcomes: True = active, False = inactive

Record Smiles	Assigned Category
C[C@H](CCCC(C)(C)O)[C@H]1CC[C@@]2(C)[C@@]34CC[C@H]5C(C)(C)/C(=N/O)CC[C@]5(C)[C@]3(CC[C@]12C)O4	False
C[C@H](CCCC(C)(C)O)[C@H]1CC[C@@]2(C)C3=C(CC[C@]12C)[C@@]1(C)CC[C@H](O)C(C)(C)[C@@H]1CC3	True
C[C@H](CCCC(C)(C)O)[C@H]1CC[C@@]2(C)C3=C(CC[C@]12C)[C@@]1(C)CCC(=O)C(C)(C)[C@@H]1CC3	True
C[C@H](CCCC(C)(C)O)[C@H]1CC[C@@]2(C)C3=CC[C@H]4C(C)(C)[C@@H](O)CC[C@]4(C)C3=CC[C@]12C	True
C[C@H](CCCC(C)(C)O)[C@H]1CC[C@@]2(C)C3=C(CC[C@]12C)[C@@]1(C)C[C@@H](F)[C@@H](O)C(C)(C)[C@@H]1CC3	True

Data provenance: ChEMBL document CHEMBL4196177
